Assay: NCI Yeast Anticancer Drug Screen. Data for the bub3 strain (AID 167)
Conditions: S. cerevisiae bub3 mutant strain, at 50.0 µM (retest, dose inferred, filed as 5.0), hits give high values
Method: Growth inhibition of yeast strains with defined genetic alterations is measured as a screen for potential anti-cancer activity. Selected strains with alterations in DNA damage repair or cell cycle control were exposed to compounds and growth inhibition was measured relative to vehicle treated controls. The strain used in this assay is bub3
Compounds without any hit were thinned out: in the full panel of roughly 79,000, 15% have a hit.
// reported growth inhibition for each item listed
# output: bare number, implied unit %

Some entries whose results are on file:
compound=CCCCCCCCCCCCCCCC(=O)NCC[N+](C)(CC)CC measurement=19
compound="CC1=CC2OC3CC4OC(=O)/C=C/C=C/C(C(C)O)OCC(=O)C(C)CC(=O)OCC2(CC1)C4(C)C31CO1 (stereo not drawn)" measurement=99
compound=O=c1c2ccccc2nc(-c2ccccc2)n1NC(=S)Nc1ccc(Cl)cc1[N+](=O)[O-] measurement=29

State, in one line, measured growth inhibition of Cc1ccc(Oc2ccc(C(=O)C(CN(C)C)CN(C)C)cc2)cc1
96

State, in one line, measured growth inhibition of CCCCCCCCNc1ncnc2c1cnn2C
87

State, in one line, measured growth inhibition of NN(Cc1ccccc1)c1ccccc1
99

State, in one line, measured growth inhibition of C#Cc1cccc(N2C(=O)CCC2=O)c1
97

State, in one line, measured growth inhibition of O=C(CC(=O)Nc1cccc(Cl)c1)NNCC(=O)Nc1nnc(-c2ccccc2)s1
99

State, in one line, measured growth inhibition of CC(=O)SC1C(=O)N(C)C(SC(C)=O)C(=O)N1C (stereo not drawn)
-3

State, in one line, measured growth inhibition of O=C1NC(=S)S/C1=C\c1ccc(F)cc1
0

State, in one line, measured growth inhibition of CC(C)C1=C(O)c2ccccc2C(=O)C1=O
97

State, in one line, measured growth inhibition of COc1ccc2c(c1)CCC(N1CCCC(O)C1)C2 (stereo not drawn)
99

State, in one line, measured growth inhibition of O=C1CN(c2cccc(Cl)c2)C(=O)CN1/N=C/c1ccc[nH]1
-3

State, in one line, measured growth inhibition of O=C(O)CCSc1ncnc2nc[nH]c12
-7

State, in one line, measured growth inhibition of CCOc1cnn(-c2ccccc2)c(=O)c1SCc1ccc(Cl)c(Cl)c1
82

State, in one line, measured growth inhibition of CC(C)(C)OC(=O)N[C@H]1CC2(C=C(Cl)C(=O)C(Cl)=C2)OC1=O
83

State, in one line, measured growth inhibition of [O-][n+]1c2ccccc2nc2cc(Cl)ccc21
-1

State, in one line, measured growth inhibition of CCC(CC)(c1ccc(C)cc1)c1ccc(C)cc1
-55

State, in one line, measured growth inhibition of Cc1cc2ccccc2c[n+]1Cc1ccc2ccccc2n1
23

State, in one line, measured growth inhibition of CC(=O)SC(C[N+](=O)[O-])c1ccc2c(c1)OCO2 (stereo not drawn)
96

State, in one line, measured growth inhibition of CN1CCN(CCCN)CC1
-14

====

Test: NCI Yeast Anticancer Drug Screen. Data for the mec2-1 strain (AID 157)
Details: S. cerevisiae mec2-1 strain, at 5.0 µM (retest, dose inferred, filed as 0.5), hits give high values
Protocol: Growth inhibition of yeast strains with defined genetic alterations is measured as a screen for potential anti-cancer activity. Selected strains with alterations in DNA damage repair or cell cycle control were exposed to compounds and growth inhibition was measured relative to vehicle treated controls. The strain used in this assay is mec2-1
This is part of a sample that, as a whole, favours compounds with a hit. Of some 79,000 tested, about 15% had one in any assay.
// reported growth inhibition for each item listed
# output: bare number, implied unit %

Some entries whose results are on file:
compound=C[n+]1c(-c2cccc(OCCCCCCCCCCOc3cccc(-c4c5cc(N)ccc5c5ccc(N)cc5[n+]4C)c3)c2)c2cc(N)ccc2c2ccc(N)cc21 measurement=99
compound=CCOc1ccc2nc(NC(=O)c3c/c(=N\NC(=O)C[N+](C)(C)C)c4ccc(O)cc4o3)sc2c1 measurement=28
compound=CN(C)CCCNCC(=O)Nc1ccc(S(=O)(=O)c2ccc(NC(=O)CNCCCN(C)C)cc2)cc1 measurement=-2
compound="CC1C=CC(C)C2C(=O)C3C(C)C=CC(C)C3C(=O)C12 (stereo not given)" measurement=6
compound=Cc1c(-c2ccc(C(=N)N)cc2)oc(-c2ccc(C(=N)N)cc2)c1C measurement=84

State, in one line, measured growth inhibition of O=C(O)c1ccc([N+](=O)[O-])o1
1

State, in one line, measured growth inhibition of N#CC1C2CCC3(CC2CCN1C(=O)c1ccccc1)OCCO3 (stereo not given)
-1

State, in one line, measured growth inhibition of O=C(Cc1ccccc1)NNc1nc(NNC(=O)c2ccncc2)nc(Nc2ccccc2)n1
-9

State, in one line, measured growth inhibition of CC1CCC(C)(C)c2cc([N+](=O)[O-])cc([N+](=O)[O-])c21 (stereo not given)
0

State, in one line, measured growth inhibition of CCCOC(=O)C(Br)C(Br)C(=O)OCCC (stereo not given)
57

====

Test: NCI Yeast Anticancer Drug Screen. Data for the bub3 strain (AID 167)
Conditions: S. cerevisiae bub3 mutant strain, at 50.0 µM, hits give high values
The panel holds about 79,000 compounds, 15% with a hit somewhere; the sample as a whole holds those more often.
result.type: growth inhibition (%)
# output: bare number, implied unit %

Some entries whose results are on file:
molecule="CCCCCCCCCCCC[N+]1(C)CCCC1c1cccnc1 (centres undefined)" measurement=97.5
molecule=Cc1cc2oc3c(ccc(=O)n3C)c(=O)c2c(C)c1Cl measurement=30.2
molecule="CCCCCCCN(CCCCCCC)CC(O)Cc1cc2c(c3ccccc13)CCCC2 (centres undefined)" measurement=94.7

State, in one line, measured growth inhibition of CCCCCCCCCCCCCCCCC#N
52.2

State, in one line, measured growth inhibition of COC1=C(NC(C)=O)C(=O)c2nc(-c3nc(C(=O)O)c(C)c(-c4ccc(OC)c(OC)c4O)c3N)ccc2C1=O
55.8

State, in one line, measured growth inhibition of CC1C(CCC(=O)O)OC2CC3C4CCC5CC(O)CCC5(C)C4CCC3(C)C21 (centres undefined)
86.4

====

Test: NCI Yeast Anticancer Drug Screen. Data for the sgs1 mgt1 strain (AID 161);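 further: 0% = growth of cultures given vehicle only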
Conditions: S. cerevisiae sgs1 mgt1 strain, at 50.0 µM (retest, dose inferred, filed as 5.0), hits give high values
About 79,000 compounds went through this panel and 15% of them were active in at least one assay; those are over-represented in the sample as a whole. Calls of active or inactive are those of the source. Rule as the data show it: active = growth inhibition above about 70%; inactive = the rest. Where a SMILES comes first, the peptide text is derived from it. The star is where a group is joined. Cbz = O=C(OCc1ccccc1)*; CH2Cl = ClC*
// reported growth inhibition for each item listed

compound=CCOC(=O)C[P+](c1ccc(C)cc1)(c1ccc(C)cc1)c1ccc(C)cc1 result_type="growth inhibition" measurement="82% (active)"

State, in one line, measured growth inhibition of COC(=O)[C@]1(C)CCCC2(C)C3=C(CCC21)CC1(CC3)SCCS1 (stereo not given in full)
93% (active)

State, in one line, measured growth inhibition of O=C(CC1(O)CCCCC1)OC1CCCC1
0% (inactive)

State, in one line, measured growth inhibition of Cc1ccc(Cl)cc1NC(=O)N(C)CCOC(=O)Nc1cccc(Cl)c1
97% (active)

State, in one line, measured growth inhibition of O=C1/C(=N/N=C(c2ccccc2)c2ccccc2)c2ccccc2-c2ccccc21
23% (inactive)

State, in one line, measured growth inhibition of COc1ccc2c(c1)CCC/C2=N\NS(=O)(=O)c1c(C)cc(C)cc1C
38% (inactive)

State, in one line, measured growth inhibition of O=C(Nc1cccc(Cl)c1)OCCN(CCOC(=O)Nc1cccc(Cl)c1)C(=O)Nc1cccc(Cl)c1
83% (active)

State, in one line, measured growth inhibition of CC(C)CC(NC(=O)OCc1ccccc1)C(=O)NC(Cc1ccccc1)C(=O)CCl (stereo not drawn) (Cbz-Leu-Phe-CH2Cl; configuration not given here)
46% (inactive)

State, in one line, measured growth inhibition of O=S(=O)(CC(Br)CCl)c1ccccc1 (stereo not given)
46% (inactive)

State, in one line, measured growth inhibition of N#CCCN(C(=S)Nc1cccc(C(F)(F)F)c1)C1CCCCC1
87% (active)

====

Test: NCI Yeast Anticancer Drug Screen. Data for the mlh1 rad18 strain (AID 175)
Conditions: S. cerevisiae mlh1 rad18 strain growth inhibition; at 50.0 µM (retest, dose inferred, filed as 5.0)
This is part of a sample that, as a whole, favours compounds with a hit. Of some 79,000 tested, about 15% had one in any assay. Active and inactive are the calls of the source. Cut-off read from the data, not from the text of the source: active = growth inhibition above about 70%; inactive = the rest.
Entry note: the call must match one of active, inactive

Worked cases, answers included:
compound="CCCC(Sc1ccccc1)c1ccccc1NC(C)=O (stereo unspecified)" class_label=inactive
compound=O=C1C(c2ccc(Br)cc2)=[N+]([O-])c2ccccc21 class_label=active
compound=CC(C)(C)c1ccc(C(=O)C[n+]2ccc(Cl)c3ccc(Cl)cc32)cc1 class_label=active

Please state the recorded outcome for this compound: Cc1c2c(c(C)c3c1sc1ccccc13)CCN=C2
active
